Test system: SF-268 (CNS)
assay.details: Human cancer cell growth inhibition, sulforhodamine B assay (NCI)
Assay type: cell-based
experimental.parameters: Homo sapiens, SF-268, 48 h
// values below are reported GI50
Numeric only. Scale: µg/mL

Here are 2 compounds together with their reported answers.
CC[C@H]1CN2CCc3cc(OC)c(OC)cc3C2C[C@@H]1C[C@@H]1c2cc(OC)c(OC)cc2CCN1C(=O)[C@H](C)[C@@H](OC)C1CCCN1C(=O)C[C@@H](OC)[C@H]([C@@H](C)CC)N(C)C(=O)[C@@H](NC(=O)[C@H](C(C)C)N(C)C)C(C)C (stereo in doubt) :: 0.032
CC[C@H]1CN2CCc3cc(OC)c(OC)cc3C2C[C@@H]1C[C@@H]1c2cc(OC)c(OC)cc2CCN1CCNC(=O)[C@H](C)[C@@H](OC)C1CCCN1C(=O)C[C@@H](OC)C([C@@H](C)CC)N(C)C(=O)[C@@H](NC(=O)[C@H](C(C)C)N(C)C)C(C)C (stereo partly shown) :: 0.3

Q) // query GI50 value for entry CC[C@H]1CN2CCc3cc(OC)c(OC)cc3C2C[C@@H]1C[C@@H]1c2cc(OC)c(OC)cc2CCN1C(=O)CCNC(=O)[C@H](C)[C@@H](OC)C1CCCN1C(=O)C[C@@H](OC)C([C@@H](C)CC)N(C)C(=O)[C@@H](NC(=O)[C@H](C(C)C)N(C)C)C(C)C (stereo partly shown)
A) 0.21
